- TESTED SYSTEM: T1, recombinant soluble extracellular domain of the human CD3 epsilon chain with His6 tag, expressed alone (human)
- T1 construct: also called recombinant CD3-epsilon antigen; rCD3-epsilon
- T1 chain: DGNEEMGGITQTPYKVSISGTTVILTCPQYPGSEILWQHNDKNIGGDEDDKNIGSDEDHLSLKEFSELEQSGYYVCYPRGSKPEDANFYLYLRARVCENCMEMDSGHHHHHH
- TEST SUMMARY: ELISA on coated recombinant CD3-epsilon, periplasmic preparation, anti-Flag detection

[
  {
    "BINDER": "human anti-human CD3 scFv 4-10 (FLAG-tagged) (scFv, VH-(G4S1)3-VL scFv from huLIB-ST, tested as crude periplasmic preparation; Flag-tag put at the C-terminus because it replaces the vector's His6-tag; also called construct 4-10) scFv: ELQLVESGGGLVQPGGSLRLSCAASGFTFSSYAMGWVRQAPGKGLEWVSAVSGSGGSTYYADSVKGRFTISRDNSKNTLYLQMNSLRAEDTAVYYCAKAKFLGHYYGMDVWGQGTTVTVSSGGGGSGGGGSGGGGSELQMTQSPSSLSASVGDRVTITCRASQSISSYLNWYQQKPGKAPKLLIYAASSLQSGVPSRFSGSGSGTEFTLTISSLQPEDFATYYCLQHNAYPYTFGQGTKVEIKTGDYKDDDDK",
    "binding result": "binds"
  },
  {
    "BINDER": "human anti-human CD3 scFv 3-114 (FLAG-tagged) (scFv, VH-(G4S1)3-VL scFv from huLIB-ST, tested as crude periplasmic preparation) scFv: ELQLVESGGGLVKPGRSLRLSCTASGFTFGDYAMSWFRQAPGKGLEWVGFIRSKAYGGTTEYAASVKGRFTISRDDSKSIAYLQMNSLKTEDTAVYYCTPQLWLLQDAFDIWGQGTMVTVSSGGGGSGGGGSGGGGSELQMTQSPSSLSASVGDRVTITCRASQGISNYLAWYQQKPGKVPKLLIYAASTLQSGVPSRFSGSGSGTDFTLTISSLQPEDFATYYCQQSYSTPPTFGQGTKLEIKTGDYKDDDDK",
    "binding result": "binds"
  },
  {
    "BINDER": "human anti-human CD3 scFv 3-148 (FLAG-tagged) (scFv, VH-(G4S1)3-VL scFv from huLIB-ST, tested as crude periplasmic preparation) scFv: ELQLVESGPGLVKPSGTLSLTCAVSGGSISSRNWWSWVRQPPGKGLEWIGDIYHSGSTNYNPSLKSRVTISVDKSKNQFSLKLSSVTAADTAVYYCASGYTSCRDAFDIWGQGTMVTVSSGGGGSGGGGSGGGGSELVMTQSPSSLSASVGDRVTITCRASQGIGNYLAWYQQKPGQPPKMLIYWASIRESGVPDRFSGSGSGTDFTLTISSLQAEDVAVYYCQQYYSNPQTFGQGTKVEIKTGDYKDDDDK",
    "binding result": "binds"
  }
]
